# Method summary: physchem
# Condition description: aqueous buffer, thermodynamic from solid, Solubility (mg/mL), Solvent: HCl 6 N, room temperature
Measured quantity: solubility at 60 minutes (µg/mL)
Answer in µg/mL, number only, no unit symbol.

Write down solubility at 60 minutes measured for item CS(=O)(=O)OCCCCOS(C)(=O)=O [Busulfan, 1,4-butanediol dimethanesulfonate]
700

----------
# Method summary: physchem
# Condition description: organic solvent or mixture, thermodynamic from solid, Solubility (mg/mL), Solvent: Acetic acid, room temperature
Measured quantity: solubility at 60 minutes (µg/mL)
Numeric answer only, unit µg/mL assumed.

Indicate its recorded solubility at 60 minutes; the compound in question is CS(=O)(=O)OCCCCOS(C)(=O)=O [Busulfan, 1,4-butanediol dimethanesulfonate]
3800
